Data origin, for the record: patent US20150266850A1

System: Erysiphe graminis f. sp. tritici
Assay: Test A: wheat powdery mildew, preventive spray on wheat seedlings, visual disease rating
Assay type: in vivo
Details: 40 ppm (*), 100 = 100% disease control
Marks after values point to notes of the source that are not given here.
Measured Test A disease control rating accompanies every entry in the list below.

Here are 2 molecules together with their reported answers.
COC(=O)NCc1cc(-c2ccn(-c3ccc(OC4CCCCC4)cc3C)n2)ccc1C | 87* %
COC(=O)NCc1cc(-n2ccc(-c3ccc(C(F)(F)F)cc3C)n2)ccc1C | 99* %

As a next step, examine the molecule that follows.
For the record `COC(=O)NCc1cc(-n2ccc(-c3ccc(C#N)cc3C)n2)ccc1C` , what value of Test A disease control rating is listed for Erysiphe graminis f. sp. tritici?
100* %

###

Tested on: Botrytis cinerea
Test: Test E: tomato botrytis, preventive spray on tomato seedlings, visual disease rating
Type: in vivo
Details: Botrytis cinerea, 120 h, 200 ppm, 100 = 100% disease control
# pest or weed control at 200 ppm listing for each entry below
The reply should contain only the number, in %.

Recorded pest or weed control at 200 ppm, per entry:
COC(=O)NCc1cc(-c2ccn(-c3ccc(OC)cc3Cl)n2)ccc1C [Compound 20] | 0
COC(=O)NCc1cc(-n2ncc(-c3ccc(OC)cc3OC)n2)ccc1C [Compound 17] | 33
COC(=O)NCc1cc(-n2ncc(-c3ccc(OC)cc3C)n2)ccc1C [Compound 8] | 90
COC(=O)NCc1cc(-n2ccc(-c3ccc(Cl)cc3OC)n2)ccc1C [Compound 11] | 56
COC(=O)NCc1cc(-n2ccc(-c3ccc(OC)cc3C)n2)ccc1C [Compound 10] | 97

Item under review: COC(=O)NCc1cc(-c2ccn(-c3ccc(OC)cc3C)n2)ccc1C [Compound 18] . Reported pest or weed control at 200 ppm?
44

Can you look up the measured pest or weed control at 200 ppm of COC(=O)NCc1cc(-n2ncc(-c3ccc(I)cc3OC)[n+]2[O-])ccc1C [Compound 81] for me?
67

I would be grateful if you could share the reported pest or weed control at 200 ppm for COC(=O)NCc1cc(-n2ccc(-c3ccc(OC)cc3OC)n2)ccc1C [Compound 23] .
66

Which pest or weed control at 200 ppm is reported for this molecule? COC(=O)NCc1cc(-c2ccn(-c3ccc(Cl)cc3OC)n2)ccc1C [Compound 28]
57

Value lookup for pest or weed control at 200 ppm; key = COC(=O)NCc1cc(-n2ccc(-c3ccc(Cl)cc3Cl)n2)ccc1C [Compound 31]
16

What value of measured pest or weed control at 200 ppm is listed for COC(=O)NCc1cc(-n2ncc(-c3ccc(OC)cc3OC)[n+]2[O-])ccc1C [Compound 4] ?
69

###

Assay: Photostability Example: aqueous photolysis under xenon arc lamp simulating natural sunlight for 24 hours, percent remaining relative to dark controls
Format: physicochemical
Conditions: 0.670 μg/mL in 80/20 10 mM pH 7 phosphate buffer/acetonitrile, xenon arc lamp 24 hours
Quick rule for you: % Cmpd Remaining under 60% gets MET, anything else gets NOT MET.

COC(=O)NCc1cc(-c2ccn(-c3ccc(OC)cc3C)n2)ccc1C [Compound 18] | NOT MET
COC(=O)NCc1cc(-n2ccc(-c3ccc(OC)cc3OC)n2)ccc1F [23PP] | MET
COC(=O)NCc1cc(-n2ccc(-c3ccc(OC)cc3OC)n2)ccc1C [Compound 23] | MET
COC(=O)NCc1cc(-n2ccc(-c3ccc(OC)cc3C)n2)ccc1F [10PP] | NOT MET

Say whether its % Cmpd Remaining is strictly beneath 60%. Entry: COC(=O)NCc1cc(-n2ncc(-c3ccc(OC)cc3OC)n2)ccc1C [Compound 17]
MET
